# System: NCI-H719 tumor spheroids, viability
# method_summary: Anticancer human tumor NCI-H719 cell line growth inhibition;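 also: spheroids exposed to compounds for seven days; percent viability relative to DMSO vehicle control as 100%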
# experimental_context: second compound 0.00949 µM; first compound 0.1 µM; stronger effect = lower value; spheroids with HUVEC and MSC
endpoint_label: viability, T/C (%)
Output spec: scalar in %, unitless text.

Here's what some known entries look like.
[
  {
    "molecule": "CC1COCCN1c1cc(-c2ccnn2C)c2ccnc(-c3ccn[nH]3)c2n1 (stereo unspecified) + CC[C@@]1(O)C(=O)OCc2c1cc1n(c2=O)Cc2cc3c(CN(C)C)c(O)ccc3nc2-1",
    "system_name": "NCI-H719 tumor spheroids, viability",
    "unit_info": "%",
    "viability, T/C": 4.76
  },
  {
    "molecule": "[2H]c1nc(C)nc([2H])c1-c1cc(NC[C@@H](C)c2cccc3c(C(=O)NC)ccnc23)ncn1 + CC[C@@]1(O)C(=O)OCc2c1cc1n(c2=O)Cc2cc3c(CN(C)C)c(O)ccc3nc2-1",
    "system_name": "NCI-H719 tumor spheroids, viability",
    "unit_info": "%",
    "viability, T/C": 8.59
  }
]

Returns the measured viability, T/C for the input molecule. Input: CC(C)n1c(=O)n(C)c2cnc3cc(F)c(-c4ccc(OCCCN5CCCCC5)nc4)cc3c21 + CC[C@@]1(O)C(=O)OCc2c1cc1n(c2=O)Cc2cc3c(CN(C)C)c(O)ccc3nc2-1
8.8

Likewise for Cc1cc(C)c(CNC(=O)c2cc(-c3ccc(CN4CCOCC4)cc3)cc3c2cnn3C2CCCC2)c(=O)[nH]1 + CC[C@@]1(O)C(=O)OCc2c1cc1n(c2=O)Cc2cc3c(CN(C)C)c(O)ccc3nc2-1 ?
6.82

Likewise for COc1cc(C)[nH]c(=O)c1CN1CCc2c(Cl)cc(C(OC)C3COC3)c(Cl)c2C1=O (stereo unspecified) + CC[C@@]1(O)C(=O)OCc2c1cc1n(c2=O)Cc2cc3c(CN(C)C)c(O)ccc3nc2-1 ?
9.34

Likewise for COc1ccc([C@@H](O)c2cc(-c3ncnc4cc(N5CCOCC5)ccc34)c(F)cc2Cl)nn1 + CC[C@@]1(O)C(=O)OCc2c1cc1n(c2=O)Cc2cc3c(CN(C)C)c(O)ccc3nc2-1 ?
6.63

====

# Tested on: NCI-H719 tumor spheroids, viability
# method_summary: Anticancer human tumor NCI-H719 cell line growth inhibition;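 also: spheroids exposed to compounds for seven days; percent viability relative to DMSO vehicle control as 100%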
# experimental_context: second compound 0.00949 µM; first compound 0.949 µM; stronger effect = lower value; spheroids with HUVEC and MSC
Form field: viability, T/C (one value per entry).
Output spec: scalar in %, unitless text.

[
  {
    "compound": "Cn1ncnc1[C@H]1c2n[nH]c(=O)c3cc(F)cc(c23)N[C@@H]1c1ccc(F)cc1 + CC[C@@]1(O)C(=O)OCc2c1cc1n(c2=O)Cc2cc3c(CN(C)C)c(O)ccc3nc2-1",
    "system_name": "NCI-H719 tumor spheroids, viability",
    "endpoint_label": "viability, T/C",
    "numeric_readout": 5.5
  },
  {
    "compound": "O=C(c1cc(Cc2n[nH]c(=O)c3ccccc23)ccc1F)N1CCN(C(=O)C2CC2)CC1 + CC[C@@]1(O)C(=O)OCc2c1cc1n(c2=O)Cc2cc3c(CN(C)C)c(O)ccc3nc2-1",
    "system_name": "NCI-H719 tumor spheroids, viability",
    "endpoint_label": "viability, T/C",
    "numeric_readout": 6.11
  },
  {
    "compound": "Cc1sc2c(c1C)C(c1ccc(Cl)cc1)=NC(CC(=O)Nc1ccc(O)cc1)c1nnc(C)n1-2 (centres undefined) + CC[C@@]1(O)C(=O)OCc2c1cc1n(c2=O)Cc2cc3c(CN(C)C)c(O)ccc3nc2-1",
    "system_name": "NCI-H719 tumor spheroids, viability",
    "endpoint_label": "viability, T/C",
    "numeric_readout": 2.51
  }
]

Now let's try a different one.
Returns the measured viability, T/C for the input compound. Input: CNCc1ccc(-c2cc(-c3nc(-c4ccc(S(=O)(=O)C(C)C)cc4)cnc3N)on2)cc1 + CC[C@@]1(O)C(=O)OCc2c1cc1n(c2=O)Cc2cc3c(CN(C)C)c(O)ccc3nc2-1
7.1
